- Test system: SW-620
- Assay Procedure: NCI tumour cell line growth inhibition, 48 h
Active and inactive are the calls of the source. Rule as the data show it: active = GI50 up to about 1.1 µM and inactive = higher.
Examples of compounds with documented GI50 follow.

Reference set, count: 3
[
  {
    "Compound": "C[C@H]1C=C2[C@@H]3CC(C)(C(=O)O)CC[C@]3(C)CC[C@]2(C)[C@]2(C)CC[C@H]3C(C)(C)[C@@H](OC(=O)c4cccc5c(=O)c6ccccc6[nH]c45)CC[C@]3(C)[C@@H]12 (stereo not given in full)",
    "Observation Type": "GI50",
    "Val": "> 100 µM (inactive)"
  },
  {
    "Compound": "CCOC(=O)C1=C(C)NC(=O)NC1c1ccc(OC)cc1OC (stereo not given)",
    "Observation Type": "GI50",
    "Val": "> 100 µM (inactive)"
  },
  {
    "Compound": "CCCCCCCCC[C@@H]1C[C@@H]2CCC3C(C(=O)OC)=C(C)N=C(N1)N32 (stereo not given in full)",
    "Observation Type": "GI50",
    "Val": "15.6 µM (inactive)"
  }
]

Suppose we examine the compound O=c1c2cc(Br)ccc2n(C2OC(CO)C(O)C(O)C2O)c(=S)n1-c1ccccc1 (stereo not given) ; what GI50 value has been reported?
> 100 µM (inactive)

CCNc1ncnc2nn[nH]c12 ?
> 100 µM (inactive)

COCC1OC(Sc2ccccc2)C(O)C(OC)C1OC (stereo not given) ?
> 100 µM (inactive)

Brc1cccc(C2SCc3nc4ccccc4n32)c1 (stereo not given) ?
31.8 µM (inactive)

CCc1cccc(C(C)C)c1NC(=O)CC1Sc2ccccc2NC1=O (stereo not given) ?
13 µM (inactive)

O=c1[nH]c(=O)n(COCc2ccccc2)c2ccccc12 ?
> 100 µM (inactive)

CCOC(=O)C1(C(=O)OCC)CCC(C(OC)OC)C(CC(=O)OC)C1 (stereo not given) ?
> 10 µM (inactive)

----------
- Test system: NCI-H522
- Assay Procedure: NCI tumour cell line growth inhibition, 48 h
The source made the active and inactive calls. Cut-off read from the data, not from the text of the source: active = GI50 up to about 1.1 µM and inactive = higher.
Observation Type: GI50

Reference set, count: 3
[
  {
    "Molecule": "Cc1c(C(=O)Nc2ccc(Cl)c(C(F)(F)F)c2)oc2cc(O)ccc2/c1=N\\NC(N)=S",
    "GI50": "> 100 µM (inactive)"
  },
  {
    "Molecule": "C/C(=N\\NC(=S)NC(C)C)c1nc2cccnc2[nH]1",
    "GI50": "13.8 µM (inactive)"
  },
  {
    "Molecule": "N#CC1CNC(N)NC1N (centres undefined)",
    "GI50": "> 100 µM (inactive)"
  }
]

// next item, GI50 requested
Suppose we examine the molecule O=c1[nH]nc(Cc2ccccc2)n1/N=C/c1ccc(/C=N/n2c(Cc3ccccc3)n[nH]c2=O)cc1 ; what GI50 value has been reported?
> 100 µM (inactive)

----------
Examples of compounds with documented GI50 follow.
- Test system: OVCAR-5
- Assay Procedure: NCI tumour cell line growth inhibition, 48 h
Activity calls are given as the source filed them. No stated cut-off is given here; in the data, active = GI50 up to about 1.1 µM and inactive = higher. Square brackets hold non-standard residues; d marks the D form. Peptide text beside a SMILES is read from it. * marks the point of attachment. Phe(4-NO2) = N[CH](Cc1ccc([N+](=O)[O-])cc1)C(=O)O; Boc = CC(C)(C)OC(=O)*

Reference set, count: 4
[
  {
    "Compound": "CN(C)c1ccc(/C=C/C(=O)c2cc(C(C)(C)C)c(O)c(C(C)(C)C)c2)cc1",
    "GI50": "2.99 µM (inactive)"
  },
  {
    "Compound": "N#Cc1c(-c2ccco2)cc(-c2ccccc2)nc1O",
    "GI50": "> 100 µM (inactive)"
  },
  {
    "Compound": "COCC1OC(Sc2ccccc2)C(O)C(OC)C1OC (stereo not given)",
    "GI50": "> 100 µM (inactive)"
  },
  {
    "Compound": "CNC(=O)CCC(NC(=O)OC(C)(C)C)C(=O)NC(Cc1ccc([N+](=O)[O-])cc1)C(=O)NCC(=O)NC (stereo not given) (Boc-Glu(NHMe)-[Phe(4-NO2)]-Gly-NHMe; configuration not given here)",
    "GI50": "> 100 µM (inactive)"
  }
]

Suppose we examine the compound COC1/C=C\OC2(C)Oc3c(C)c(O)c4c(O)c(c(CN(C)C)c(O)c4c3C2=O)NC(=O)/C(C)=C\C=C/C(C)C(O)C(C)C(O)C(C)C(OC(C)=O)C1C (stereo not given) ; what GI50 value has been reported?
> 100 µM (inactive)

----------
- System: MDA-MB-231
- Assay Procedure: NCI tumour cell line growth inhibition, 48 h
The source made the active and inactive calls. Cut-off read from the data, not from the text of the source: active = GI50 up to about 1.1 µM and inactive = higher. Where a SMILES comes first, the peptide text is derived from it. Bridges are numbered along the chain shown (N, C = ends). The star is where a group is joined. Cbz = O=C(OCc1ccccc1)*
# output must be one of active, inactive

[
  {
    "Compound": "C[C@H](CCc1nc(C#N)c(N)o1)[C@H]1CC[C@H]2[C@@H]3[C@@H](O)CC4C[C@@H](O)CC[C@]4(C)[C@H]3C[C@@H](O)[C@]12C (stereo partly drawn)",
    "Class Name": "inactive"
  },
  {
    "Compound": "COC(=O)C1CCCCNC(=O)CCC(NC(=O)OCc2ccccc2)C(=O)N1 (stereo not drawn) (Cbz-Glu-Lys-OMe; lactam 1-2; configuration not given here)",
    "Class Name": "inactive"
  }
]

Recorded test outcome, item COC(=O)[C@]12CCC(=O)N1[C@H](C(=O)O)Cc1c2[nH]c2ccccc12
inactive

COc1ccc2c(C(=O)c3c(C)n(CCN4CCOCC4)c4ccccc34)cccc2c1 ?
inactive

CCCC(=O)NC1CCc2cc(OC)c(OC)c(OC)c2-c2ccc(OC)c(=O)cc21 (stereo not drawn) ?
active

Cc1c(OCc2cccc3ccccc23)ccc2c(=O)cc(SCCN3CCOCC3)oc12 ?
inactive

COc1ccc(Nc2nc3cc(C(F)(F)F)ccc3n3cccc23)cc1OC ?
inactive

Cc1cc(Cl)ccc1OCC(=O)Oc1c(Cl)c(Cl)c(Cl)c(Cl)c1Cl ?
inactive

----------
- Tested on: NCI-H226
- Assay Procedure: NCI tumour cell line growth inhibition, 48 h
The source made the active and inactive calls. Rule as the data show it: active = GI50 up to about 1.1 µM and inactive = higher.
Examples of compounds with documented GI50 follow.

Reference set, count: 3
[
  {
    "Compound": "Cc1cc2c(O)c(c1)COCc1cc(C)cc(c1O)COCc1cc(C)cc(c1O)COC2",
    "GI50": "> 100 µM (inactive)"
  },
  {
    "Compound": "O=S(=O)(Nc1nc2ccccc2nc1Nc1cccc2ccccc12)c1ccccc1",
    "GI50": "40.6 µM (inactive)"
  },
  {
    "Compound": "COCC12CCC(OC)C34C5CC6(O)C(OC)CC(OC(C)=O)(C5C6OC(=O)c5ccccc5)C(C(OC)C13)C4N(C)C2 (centres undefined)",
    "GI50": "> 100 µM (inactive)"
  }
]

Suppose we examine the compound Cc1ccc([Se][Se]c2ccc(C)cc2)cc1 ; what GI50 value has been reported?
24.5 µM (inactive)

C/C(=C/CC[C@](C)(OC1OC(CO)C(O)C(O)C1OC1OC(C)C(O)C(O)C1O)[C@H]1CC[C@]2(C)[C@@H]1CC[C@@H]1[C@@]3(C)CC[C@H](O)C(C)(C)[C@@H]3C[C@H](O)[C@]12C)CO (some centres undefined) ?
> 100 µM (inactive)

COC(=N)C12C(N)=NC(OC)(OC)C1(C#N)C21C(=O)N(c2ccccc2)N=C1C (centres undefined) ?
> 100 µM (inactive)

C[C@H](CCc1nc(C#N)c(N)o1)[C@H]1CC[C@H]2[C@@H]3[C@@H](O)CC4C[C@@H](O)CC[C@]4(C)[C@H]3C[C@@H](O)[C@]12C (some centres undefined) ?
21.2 µM (inactive)

Cc1cc(Cl)ccc1OCC(=O)Oc1c(Cl)c(Cl)c(Cl)c(Cl)c1Cl ?
20.2 µM (inactive)

CC(O)C1(CNc2cc(Cl)nc(N)n2)CC(CCc2ccccc2)C1 (centres undefined) ?
14.7 µM (inactive)

Cc1c2c(n3c(nc4ccccc43)c1C#N)NCC2 ?
> 10 µM (inactive)

CCOC(=O)C(Cc1ccccc1)(Cc1ccc(O)cn1)NC(=O)c1ccccc1 (centres undefined) ?
29.2 µM (inactive)

----------
- Tested on: UACC-257
- Assay Procedure: NCI tumour cell line growth inhibition, 48 h
Calls of active or inactive are those of the source. No stated cut-off is given here; in the data, active = GI50 up to about 1.1 µM and inactive = higher.
Examples of molecules with documented GI50 follow.

Suppose we examine the molecule O=C(C[N+]12CN3CN(CN(C3)C1)C2)c1ccc(-c2ccccc2)cc1 ; what GI50 value has been reported?
15.8 µM (inactive)

----------
- Test system: SNB-19
- Assay Procedure: NCI tumour cell line growth inhibition, 48 h
Calls of active or inactive are those of the source. Rule as the data show it: active = GI50 up to about 1.1 µM and inactive = higher.
Examples of compounds with documented GI50 follow.

Reference set, count: 9
[
  {
    "Compound": "C=CCn1c(S)nnc1C12CC3CC(CC(C3)C1)C2",
    "Target": "SNB-19",
    "Val": "> 100 µM (inactive)"
  },
  {
    "Compound": "COC1/C=C\\OC2(C)Oc3c(C)c(O)c4c(O)c(c(CN(C)C)c(O)c4c3C2=O)NC(=O)/C(C)=C\\C=C/C(C)C(O)C(C)C(O)C(C)C(OC(C)=O)C1C (stereo not given)",
    "Target": "SNB-19",
    "Val": "42.9 µM (inactive)"
  },
  {
    "Compound": "CC1(C)C(=O)C2(C#N)CCC1C2 (stereo not given)",
    "Target": "SNB-19",
    "Val": "> 100 µM (inactive)"
  },
  {
    "Compound": "COc1ncc(C#CC(=O)c2ccccc2)c(OC)n1",
    "Target": "SNB-19",
    "Val": "15.8 µM (inactive)"
  },
  {
    "Compound": "CCCCC1c2c([nH]c3ccccc23)C2C(=O)N(c3ccc(OC)cc3)C(=O)C2C1CCC (stereo not given)",
    "Target": "SNB-19",
    "Val": "8.59 µM (inactive)"
  },
  {
    "Compound": "CC1(C)C(CCO)CC1n1cc(I)c(=O)[nH]c1=O (stereo not given)",
    "Target": "SNB-19",
    "Val": "> 100 µM (inactive)"
  },
  {
    "Compound": "CCOP(=O)(O)C1C(CO)OC(n2ccc(=O)[nH]c2=O)C1O (stereo not given)",
    "Target": "SNB-19",
    "Val": "> 100 µM (inactive)"
  },
  {
    "Compound": "O=C(CC(O)(C(F)(F)F)C(F)(F)F)C(CCCl)C(O)(C(F)(F)F)C(F)(F)F (stereo not given)",
    "Target": "SNB-19",
    "Val": "34.5 µM (inactive)"
  },
  {
    "Compound": "COc1cc(/C=N\\c2ccc(C(C)C)cc2)cc(OC)c1OC",
    "Target": "SNB-19",
    "Val": "> 100 µM (inactive)"
  }
]

Suppose we examine the compound OC(CC1CCCCN1)c1ccc2c(c1)oc1ccccc12 (stereo not given) ; what GI50 value has been reported?
> 100 µM (inactive)

The measurements presented in this section are drawn from ChEMBL document CHEMBL1201862.
